List of IC50 values.
Target: T1, canine IL-4 receptor alpha chain (full length) expressed on the surface of CHO DG44 cells (canine)
T1 construct: also called cIL-4Rα; CHO-cIL-4Rα
T1 chain: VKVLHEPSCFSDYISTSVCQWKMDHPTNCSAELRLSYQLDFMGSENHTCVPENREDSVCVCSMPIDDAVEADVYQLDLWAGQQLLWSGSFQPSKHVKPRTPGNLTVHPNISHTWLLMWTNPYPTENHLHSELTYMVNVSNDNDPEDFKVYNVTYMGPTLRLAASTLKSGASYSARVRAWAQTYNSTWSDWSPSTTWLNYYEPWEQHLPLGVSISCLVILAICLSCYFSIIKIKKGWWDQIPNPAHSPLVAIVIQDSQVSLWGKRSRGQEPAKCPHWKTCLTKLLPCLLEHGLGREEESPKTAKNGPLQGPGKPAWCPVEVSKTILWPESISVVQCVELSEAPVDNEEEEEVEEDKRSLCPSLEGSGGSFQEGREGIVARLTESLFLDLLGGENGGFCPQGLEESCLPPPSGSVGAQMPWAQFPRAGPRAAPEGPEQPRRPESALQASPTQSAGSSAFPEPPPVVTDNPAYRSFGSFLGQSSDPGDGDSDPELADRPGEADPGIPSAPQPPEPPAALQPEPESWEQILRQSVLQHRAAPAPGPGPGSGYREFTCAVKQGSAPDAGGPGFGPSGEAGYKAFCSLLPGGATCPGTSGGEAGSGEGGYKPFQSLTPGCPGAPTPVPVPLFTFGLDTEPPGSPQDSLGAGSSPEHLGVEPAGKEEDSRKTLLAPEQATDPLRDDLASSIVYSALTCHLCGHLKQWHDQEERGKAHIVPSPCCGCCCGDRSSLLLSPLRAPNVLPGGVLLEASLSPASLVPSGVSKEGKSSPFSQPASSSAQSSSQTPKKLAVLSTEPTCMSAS
Experiment: flow cytometry ligand blockade on CHO-cIL-4Rα cells; competitor biotinylated canine IL-4 at 0.32 µg/mL
Respond with the bare value in nM.

Worked cases, IC50 given:
Per the records, this binder ( mouse anti-canine IL-4Rα monoclonal antibody 11B6 (antibody, V domains shown, Hybridoma-derived mouse antibody; also called mAb 11B6) VH: EVQLQESGPGLAKPSQTLSLTCSVTGYSITSDYWNWIRKFPGNKLEYMGYINYSGNTYYNPSLKSRISITRDTSKNQYYLQLNSVTTEDTATYYCARYGGLRQGSWHFDVWGPGTTVTVSS VL: QIVLTQSPAIMSASPGEKVTISCSASSSVSYMYWYQQKPGSSPKPWIYRTSNLASGVPARFSGSGSGTSYSLTISSMEAEDAATYYCQQYHSYPATFGGGTKLEIK ) has IC50 equal to 53.2

Per the records, this binder ( mouse anti-canine IL-4Rα monoclonal antibody 6C12 (antibody, V domains shown, Hybridoma-derived mouse antibody; also called mAb 6C12) VH: QIQLIQSGPELKKPGETVKISCKASGYTFTTFGMSWVKQAPGKGLKWMGWISTYSGVPTYADDFKGRFAFSLETSASTAYLQINNLKNEDTASYFCARHTFQSRGLAYWGQGTLVTVSA VL: DIVMTQSHKFMSTSVGDRVSITCKASQDVITTVAWYQQKPGQSPKLLIYSASYRYTGVPDRFTGSGSGTDFTFTITSVQTEDLAVYYCQQHYSTPWTFGGGTKLEIK ) has IC50 equal to 19.3

Per the records, this binder ( mouse anti-canine IL-4Rα monoclonal antibody 4H3 (antibody, V domains shown, Hybridoma-derived mouse antibody; also called mAb 4H3) VH: QVQLQQPGAELVKPGASVKLSCKASGYTFTNYWIHWMKQRPGRGLEWIGRIDPNSGGTKYNEKFKSKATLTVDKPSITAYMQLSSLTSEDSAVYYCAAFGSTYGFAYWGQGTLVTVSA VL: DIVMSQSPSSLAVSAGEKVTMSCKSSQSLLNSRTRKNYLAWYQQKPGQSPKLLIYWASTRESGVPDRFTGSGSGTDFTLTISSVQAEDLAVYYCKQSYNLYTFGGGTKLEIK ) has IC50 equal to 3.9

Per the records, this binder ( mouse anti-canine IL-4Rα monoclonal antibody 4D8 (antibody, V domains shown, Hybridoma-derived mouse antibody; also called mAb 4D8) VH: EVTLVESGGGLVQPGGSLKLSCAASGFTFSDYYMYWVRQTPEKRLEWVAYISPGGGSTYYPDTIKGRFTISRDNAKNTLYLQMSRLKSEDTAMYYCTRHGSPYGSSRGAWFAYWGQGTLVTVSA VL: DIQMTQSPASLSASVGETVTITCRASENIYSYLAWYQQKQGKSPQLLVYNGKTLAEGVPARFSGSGSGTQFSLKINSLQPEDFGSYYCQHHDGIPVTFGAGTKLELK ) has IC50 equal to 4.2

Okay, next one:
Per the records, this binder ( mouse anti-canine IL-4Rα monoclonal antibody 2E2 (antibody, V domains shown, Hybridoma-derived mouse antibody; also called mAb 2E2) VH: EVKLVESGGGLVQPGGSLKLSCVASGFTFSDYHMHWVRQTPEKRLEWVAYISKGGGSTYYPDTEKGRFTISRDNAKNTLYLQMSRLKSEDTAMYYCARSPGPSSFYWYFDVWGTGTTVTVSS VL: DIQMTQSPASLSASVGETVTITCRASENIYSYLAWYQQKQGKSPQLLVYNAKTLAEGVPSRFSGSGSGTQFSLKINSLQPEDFGSYYCQHHYGIPVTVGVGTKLELK ) has IC50 equal to 2.1
